Hello, the source for this data is paper PMC12067444, in case you need it.

- Test protocol: Tissue distribution after acute oral administration
- Assay type: in vivo, mouse
- Test context: male, C57Bl/6J, mouse, plasma; 1 mg/kg PO, 1 h post-acute administration; read-out: plasma concentration
Assay endpoint: concentration at 1 h (ng/mL)
API: value field is a number in ng/mL; no unit string.

input: Let me know recorded concentration at 1 h for Cc1c(C(=O)NN2CCCCC2)nn(-c2ccc(Cl)cc2Cl)c1-c1ccc(Cl)cc1 , thanks.
output: 30

====

- Study target: mouse CB1R (Mus musculus, UniProt P47746)
- Construct: crude membranes from mouse brain; from tissue; host or cells: mouse brain cortex (without cerebellum) membranes, C57Bl/6Jhsd mice
- Sequence (P47746 whole entry): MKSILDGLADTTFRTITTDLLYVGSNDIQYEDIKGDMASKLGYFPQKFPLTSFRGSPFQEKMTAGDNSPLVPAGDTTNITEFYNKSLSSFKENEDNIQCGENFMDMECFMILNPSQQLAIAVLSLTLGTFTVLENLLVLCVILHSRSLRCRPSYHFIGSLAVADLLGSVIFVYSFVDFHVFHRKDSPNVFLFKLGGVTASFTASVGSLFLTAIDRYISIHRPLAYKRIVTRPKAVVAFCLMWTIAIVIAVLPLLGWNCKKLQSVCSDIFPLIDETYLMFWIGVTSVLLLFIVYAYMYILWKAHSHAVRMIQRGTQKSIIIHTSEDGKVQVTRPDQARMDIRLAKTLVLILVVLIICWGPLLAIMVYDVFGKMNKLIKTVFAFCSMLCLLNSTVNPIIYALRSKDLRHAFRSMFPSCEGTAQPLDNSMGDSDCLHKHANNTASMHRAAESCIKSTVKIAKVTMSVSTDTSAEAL
- Test protocol: Radioligand competition displacement binding, [3H]CP-55,940, mouse brain membranes
- Test context: [3H]CP-55,940 displacement, mouse brain membranes; read-out: CB1R mKi
Assay endpoint: Ki

input: Let me know recorded Ki for CNC(=O)NC1CCCOc2c1nn(-c1ccccc1Cl)c2-c1ccc(Cl)cc1 (centres unmarked) , thanks.
output: 1130 nM

input: Let me know recorded Ki for CS(=O)(=O)N1CCC(C(=O)NC2CCCOc3c2nn(-c2ccccc2Cl)c3-c2ccc(Cl)cc2)CC1 (centres unmarked) , thanks.
output: 18 nM

input: Let me know recorded Ki for Cc1ccc(S(=O)(=O)NC2CCCOc3c2nn(-c2ccccc2Cl)c3-c2ccc(Cl)cc2)cc1 (centres unmarked) , thanks.
output: 10 nM

input: Let me know recorded Ki for CS(=O)(=O)NC1CCCOc2c1nn(-c1ccccc1Cl)c2-c1ccc(Cl)cc1 (centres unmarked) , thanks.
output: 33.8 nM

input: Let me know recorded Ki for O=C(NC1CCCOc2c1nn(-c1ccccc1Cl)c2-c1ccc(Cl)cc1)C1CCN(S(=O)(=O)c2ccc(Cl)cc2)CC1 (centres unmarked) , thanks.
output: 1.6 nM

====

- Study target: P-gp (MDR1-MDCKII cells) (Homo sapiens)
- Sequence (P08183 whole entry): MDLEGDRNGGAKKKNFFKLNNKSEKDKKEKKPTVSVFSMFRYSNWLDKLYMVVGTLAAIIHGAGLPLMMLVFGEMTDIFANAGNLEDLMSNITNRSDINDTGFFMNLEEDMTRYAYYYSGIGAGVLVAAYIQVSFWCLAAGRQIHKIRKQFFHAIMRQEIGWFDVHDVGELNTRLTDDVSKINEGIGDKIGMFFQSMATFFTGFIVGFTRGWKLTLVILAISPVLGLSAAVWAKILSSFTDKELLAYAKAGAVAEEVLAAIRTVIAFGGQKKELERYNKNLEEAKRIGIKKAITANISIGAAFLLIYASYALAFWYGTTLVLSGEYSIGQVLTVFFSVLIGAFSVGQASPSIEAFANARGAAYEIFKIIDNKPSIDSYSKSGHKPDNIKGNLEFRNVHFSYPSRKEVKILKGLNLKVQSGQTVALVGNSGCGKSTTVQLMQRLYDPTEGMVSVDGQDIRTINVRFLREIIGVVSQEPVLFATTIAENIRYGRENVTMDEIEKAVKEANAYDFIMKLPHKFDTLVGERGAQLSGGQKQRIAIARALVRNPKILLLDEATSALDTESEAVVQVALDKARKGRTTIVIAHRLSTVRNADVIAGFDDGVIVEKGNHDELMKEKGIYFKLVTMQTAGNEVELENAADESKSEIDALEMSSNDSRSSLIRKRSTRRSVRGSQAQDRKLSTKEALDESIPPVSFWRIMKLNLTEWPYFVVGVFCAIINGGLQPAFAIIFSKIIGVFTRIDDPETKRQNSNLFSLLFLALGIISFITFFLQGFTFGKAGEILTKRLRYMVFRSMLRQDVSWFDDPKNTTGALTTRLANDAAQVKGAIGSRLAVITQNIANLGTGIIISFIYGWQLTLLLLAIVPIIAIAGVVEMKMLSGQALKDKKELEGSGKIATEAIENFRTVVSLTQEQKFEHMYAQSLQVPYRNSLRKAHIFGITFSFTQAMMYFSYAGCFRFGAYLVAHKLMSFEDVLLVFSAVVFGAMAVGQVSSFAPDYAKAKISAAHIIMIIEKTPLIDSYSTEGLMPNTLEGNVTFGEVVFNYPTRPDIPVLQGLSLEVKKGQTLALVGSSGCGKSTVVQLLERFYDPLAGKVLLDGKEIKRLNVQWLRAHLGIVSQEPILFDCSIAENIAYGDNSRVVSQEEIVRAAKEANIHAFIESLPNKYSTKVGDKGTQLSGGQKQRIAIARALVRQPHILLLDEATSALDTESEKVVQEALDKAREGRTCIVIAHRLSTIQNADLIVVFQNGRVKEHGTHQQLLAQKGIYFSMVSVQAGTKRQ
- Test protocol: Bidirectional permeability in MDR1-MDCKII cells with and without GF120918
- Test context: MDR1-MDCKII permeability rank
- Method: MDR1-MDCKII cells were seeded onto […] (PET) in a 96-well insert system. Test and reference compounds were administered to the apical (A-to-B) and basolateral (B-to-A) sides of the cell monolayer. Permeation of the compounds in both directions was assessed, with and without a P-glycoprotein (P-gp) inhibitor (GF120918). […] After a 2.5-h incubation period, each compound’s permeability and efflux ratio were calculated as described in the SI. […]
Assay endpoint: Rank Papp

Past entries and their recorded results:
CC(C)(C)NCC(O)COc1cccc2c1CC(O)C(O)C2 (stereo not drawn) [Nadolol, reference compound] | Low
C[C@H]1O[C@@H](O[C@H]2[C@@H](O)C[C@H](O[C@H]3[C@@H](O)C[C@H](O[C@H]4CC[C@@]5(C)[C@H](CC[C@@H]6[C@@H]5C[C@@H](O)[C@]5(C)[C@@H](C7=CC(=O)OC7)CC[C@]65O)C4)O[C@@H]3C)O[C@@H]2C)C[C@H](O)[C@@H]1O [Digoxin, reference compound] | Low
CCOC(=O)N1CCC(C(=O)NC2CCCOc3c2nn(-c2ccccc2Cl)c3-c2ccc(Cl)cc2)CC1 (stereo not drawn) | Hi gh
CS(=O)(=O)N1CCC(C(=O)NC2CCCOc3c2nn(-c2ccccc2Cl)c3-c2ccc(Cl)cc2)CC1 (stereo not drawn) | Hi gh
O=S(=O)(NC1CCCOc2c1nn(-c1ccccc1Cl)c2-c1ccc(Cl)cc1)c1ccc(Cl)cc1 (stereo not drawn) | Low

input: Let me know recorded Rank Papp for COCCc1ccc(OCC(O)CNC(C)C)cc1 (stereo not drawn) [Metoprolol, reference compound] , thanks.
output: Hi gh
